Recorded Kd values for a group of binders are listed next.
Molecular target: T1, EsCas13d, nuclease-dead (Eubacterium siraeum, UniProt B0MS50, R295A;H300A;R849A;H854A)
T1 sequence: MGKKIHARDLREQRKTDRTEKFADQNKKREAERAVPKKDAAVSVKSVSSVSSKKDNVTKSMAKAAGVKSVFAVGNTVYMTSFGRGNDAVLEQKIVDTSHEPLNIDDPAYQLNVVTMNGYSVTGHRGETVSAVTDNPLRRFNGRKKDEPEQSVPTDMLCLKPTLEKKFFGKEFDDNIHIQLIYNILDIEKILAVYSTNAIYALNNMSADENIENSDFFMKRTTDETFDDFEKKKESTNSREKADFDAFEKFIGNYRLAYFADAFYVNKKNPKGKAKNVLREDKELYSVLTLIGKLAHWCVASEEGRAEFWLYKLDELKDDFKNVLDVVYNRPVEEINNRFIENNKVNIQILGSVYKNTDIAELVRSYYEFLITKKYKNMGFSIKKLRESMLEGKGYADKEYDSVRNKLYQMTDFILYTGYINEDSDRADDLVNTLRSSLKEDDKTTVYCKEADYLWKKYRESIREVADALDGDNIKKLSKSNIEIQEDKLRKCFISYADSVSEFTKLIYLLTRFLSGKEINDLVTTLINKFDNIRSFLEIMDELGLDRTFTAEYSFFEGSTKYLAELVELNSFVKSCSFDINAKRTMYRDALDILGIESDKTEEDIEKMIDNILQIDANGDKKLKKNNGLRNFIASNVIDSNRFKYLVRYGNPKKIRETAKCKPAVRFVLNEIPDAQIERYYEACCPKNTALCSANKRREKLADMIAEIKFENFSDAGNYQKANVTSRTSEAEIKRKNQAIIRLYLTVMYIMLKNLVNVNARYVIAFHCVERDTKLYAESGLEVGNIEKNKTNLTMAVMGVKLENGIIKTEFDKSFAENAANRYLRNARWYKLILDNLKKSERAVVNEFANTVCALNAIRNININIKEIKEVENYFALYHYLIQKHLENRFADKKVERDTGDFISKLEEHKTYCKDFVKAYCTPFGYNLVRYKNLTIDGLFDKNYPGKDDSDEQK
Test: crRNA (strand 1, pre-loaded); Mg2+; 40 mM Tris-HCl pH 7.5, 150 mM NaCl, 6 mM MgCl2, 1 mM DTT, 0.1% Tween-20, 0.2 mg/ml BSA; 25 C; 10 min per concentration, then washed
Details: tags: His6-TwinStrep-SUMO cleaved; N-terminal SNAP kept (SNAP-Surface 488); label: 3' end held by stalled T7 RNA polymerase

>>> reported_measurement("target 1 insA 3' of 21,insA 3' of 19 (mixed) RNA 1: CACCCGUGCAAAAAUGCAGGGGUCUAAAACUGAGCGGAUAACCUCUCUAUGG RNA 2: GGGAAUGGAUCCACAUCUACGAAUUCGUACCAAUAAGAGAGGUUAUCCGCUCACCGAGAUCGGAAGAGCACACGU")
"32.2 nM"

Please look at the following binder next.
For target 1 insC 3' of 15,insG 3' of 9 (mixed) RNA 1: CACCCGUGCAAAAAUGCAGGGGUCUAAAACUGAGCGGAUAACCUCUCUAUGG RNA 2: GGGAAUGGAUCCACAUCUACGAAUUCGUACCAUAGAGCAGGUUAGUCCGCUCACCGAGAUCGGAAGAGCACACGU the binder record lists Kd as 20.8 nM
